Item-by-item account of kon
tested system: T1, recombinant human CD4 (catalogue number: 514-CD/CF, manufactured by R&D Systems) (human, UniProt P01730 26-390)
T1 construct: Bought protein (R&D Systems); also called recombinant CD4
measurement notes: SPR, Biacore T100; antibody captured on anti-human IgG chip, recombinant human CD4 flowed; 1:1 binding model
Answer in M⁻¹ s⁻¹, number only, no unit symbol.

binder="anti-CD4 chimeric antibody KM4046 (antibody, V domains shown, Variable regions of rat KM4066 joined to the '113F type' human IgG1/IgG3 heavy chain constant region (US2007/0148165) and a human kappa constant region; Expressed in FUT8 knockout CHO cells (0% fucose)) VH: EVQLEESGGGLVQPGRSLKLSCLASGFTFSNYGMNWIRQAPGKGLEWVASISGSSTYIYYADTVKGRFTISRENAENTLYLQMTSLRSEDTALYYCAREGSSTDRYYEVSFAYWGQGTLVTVSS VL: DVVLTQTPVSLSVTLGDQASISCRSSQSLEYSDGYTYLEWYLQKPGQSPQVLIYGVSNRFSGVPDRFIGSGSGTDFTLKISRVEPEDLGVYYCFQATHDPYTFGAGTRLELK" quantity_kind=kon assay_result=834000
binder="anti-CD4 chimeric antibody KM4048 (antibody, V domains shown, Variable regions of rat KM4068 joined to the '113F type' human IgG1/IgG3 heavy chain constant region (US2007/0148165) and a human kappa constant region; Expressed in FUT8 knockout CHO cells (0% fucose)) VH: QVQLKESGPGLVQPSQTLSLTCTVSGLSLTSNSVSWIRQPPGKGLEWMGIIWSNGDTDYNSAIKSRLSISRDTSKSQVFLKMNSLQTEDTAMYFCANPYYGYNFPFDYWGQGVMVTVSS VL: DIQMTQSPASLSASLEEIVTITCKASQGIDNYLSWYQQKPGKSPQLLIYDATSLADGVPSRFSGSRSGTQYSLKISRPQVDDSGIYYCLQSYSTPFTFGSGTKLEIK" quantity_kind=kon assay_result=5.85e+06

# context switch: different binder, same kon
## Input // Input: anti-CD4 chimeric antibody KM4049 (antibody, V domains shown, Variable regions of rat KM4069 joined to the '113F type' human IgG1/IgG3 heavy chain constant region (US2007/0148165) and a human kappa constant region; Expressed in FUT8 knockout CHO cells (0% fucose)) VH: QVQLKESGPGLVQPSQTLSLTCTVSGSSLTSNSVSWIRQPPGKGLEWMGVIWSNGDADYNSAIKSRLSISRDTSKSQVFLKMNSLQTEDTAMYFCASPYYGYYFPFDYWGQGVMVTVSS VL: DIQMTQSPASLSASLEEIVTITCKASQAIDAYLSWYQQKPGKSPQLLIYDATSLADGVPSRFSGSRSGTQYSLKISRPQVDDSGIYYCLQSYSTPFTFGSGTKLEIK . Output its kon only.
## Output 5.77e+06
